# System: Wnt signaling
# assay.overview: TopFlash reporter gene bioassay in SW480 cells
# Assay type: cell-based
# stated.conditions: Homo sapiens, SW480; read-out: RGA, IC50 (μM) TopF
What IC50 was measured for each of the following?
Numbers only, in µM.

// known answers, use as guide
C=CCN1CC(=O)N2[C@@H](Cc3ccc(O)cc3)C(=O)N(Cc3cccc(C(=O)N4CCCC4)c3)C[C@@H]2N1C(=O)NCc1ccccc1: 2.68
C=CCN1CC(=O)N2[C@@H](Cc3ccc(OP(=O)(O)O)cc3)C(=O)N(Cc3ccccc3N3CCCC3)C[C@@H]2N1C(=O)NCc1ccccc1: 1.41
C=CCN1CC(=O)N2[C@@H](Cc3ccc(OP(=O)(O)O)cc3)C(=O)N(Cc3ccc(OC)cc3F)C[C@@H]2N1C(=O)NCc1ccccc1: 3.8
C=CCN1CC(=O)N2[C@@H](Cc3ccc(OP(=O)(O)O)cc3)C(=O)N(Cc3cccc(N4CCCC4=O)c3)C[C@@H]2N1C(=O)NCc1ccccc1: 1.09
C=CCN1CC(=O)N2[C@@H](Cc3ccc(O)cc3)C(=O)N(Cc3cccc4cc[nH]c34)C[C@@H]2N1C(=O)NCc1ccccn1: 3.14
C=CCN1CC(=O)N2[C@@H](Cc3ccc(O)cc3)C(=O)N(Cc3cccc(C(=O)NCCC)c3)C[C@@H]2N1C(=O)NCc1ccccc1: 0.3

Go through the list and state IC50 for each entry.
1. C=CCN1CC(=O)N2[C@@H](Cc3ccc(OP(=O)(O)O)cc3)C(=O)N(Cc3cccc4c3oc3ccccc34)C[C@@H]2N1C(=O)NCc1ccccc1
2. C=CCN1CC(=O)N2[C@@H](Cc3ccc(OP(=O)(O)O)cc3)C(=O)N(Cc3cccc(OC)c3OC)C[C@@H]2N1C(=O)NCc1ccccc1
3. C=CCN1CC(=O)N2[C@@H](Cc3ccc(OP(=O)(O)O)cc3)C(=O)N(Cc3cccc4c(-c5ccccc5)c[nH]c34)C[C@@H]2N1C(=O)NCc1ccccc1
4. C=CCN1CC(=O)N2[C@@H](Cc3ccc(O)cc3)C(=O)N(Cc3ccc4cc[nH]c4c3)C[C@@H]2N1C(=O)NCc1ccccc1
5. C=CCN1CC(=O)N2[C@@H](Cc3ccc(O)cc3)C(=O)N(Cc3csc4ccc(NS(C)(=O)=O)cc34)C[C@@H]2N1C(=O)NCc1ccccc1

Result:
1: 0.36; 2: 0.54; 3: 0.45; 4: 4.01; 5: 6.59

IC50 for `C=CCOc1ccc(CN2C[C@H]3N(C(=O)CN(CC=C)N3C(=O)NCc3ccccc3)[C@@H](Cc3ccc(OP(=O)(O)O)cc3)C2=O)cc1` is 1.83

###

What IC50 was measured for each of the following?
# Test system: Wnt signaling
# assay.overview: TopFlash reporter gene bioassay in SW480 cells
# Format: cell-based
# stated.conditions: Homo sapiens, SW480, TopFlash reporter gene assay, inhibition of Wnt signaling; read-out: RGA, IC50 (μM) TopF
Answers are plain numbers, in µM.

// known answers, use as guide
C=CCN1CC(=O)N2[C@@H](Cc3ccc(O)cc3)C(=O)N(Cc3cccc4c3nc(C(F)(F)F)n4C)C[C@@H]2N1C(=O)NCc1ccccc1: 1.07
C=CCN1CC(=O)N2[C@@H](Cc3ccc(O)cc3)C(=O)N(Cc3cccc(C(=O)O)c3)C[C@@H]2N1C(=O)NCc1ccc(Cl)cc1Cl: 1.51

IC50 for `C=CCN1CC(=O)N2[C@@H](Cc3ccc(O)cc3)C(=O)N(Cc3cccc(-c4cccc(OC)c4)n3)C[C@@H]2N1C(=O)NCc1ccccc1` is 3.96

###

What IC50 was measured for each of the following?
# Tested on: Wnt signaling
# assay.overview: TopFlash reporter gene bioassay in SW480 cells
# Format: cell-based
# stated.conditions: Homo sapiens, SW480, TopFlash reporter gene assay, inhibition of Wnt signaling; read-out: RGA, IC50 (μM) TopF
# number then unit; no other words

C=CCN1CC(=O)N2[C@@H](Cc3ccc(O)cc3)C(=O)N(Cc3ccc(F)c(-c4cccnc4)c3)C[C@@H]2N1C(=O)NCc1ccccc1: 0.52 µM

Go through the list and state IC50 for each entry.
1. C=CCN1CC(=O)N2[C@@H](Cc3ccc(O)cc3)C(=O)N(Cc3cccc(-c4ccsc4)c3)C[C@@H]2N1C(=O)NCc1ccccc1
2. C=CCN1CC(=O)N2[C@@H](Cc3ccc(O)cc3)C(=O)N(Cc3csc4cc([N+](=O)[O-])ccc34)C[C@@H]2N1C(=O)NCc1ccccc1

Result:
1. 0.9 µM
2. 0.92 µM

###

# System: Wnt signaling
# assay.overview: TopFlash reporter gene bioassay in SW480 cells
# Type: cell-based
# stated.conditions: Homo sapiens, SW480, TopFlash reporter gene assay, inhibition of Wnt signaling; read-out: RGA, IC50 (μM) TopF
What IC50 was measured for each of the following?

// known answers, use as guide
C=CCN1CC(=O)N2[C@@H](Cc3ccc(O)cc3)C(=O)N(Cc3cccc(-c4ccc(O)cc4)n3)C[C@@H]2N1C(=O)NCc1ccccc1: 6.71 µM
C=CCN1CC(=O)N2[C@@H](Cc3ccc(O)cc3)C(=O)N(Cc3csc4ccc(F)cc34)C[C@@H]2N1C(=O)NCc1ccccc1: 0.45 µM
C=CCN1CC(=O)N2[C@@H](Cc3ccc(O)cc3)C(=O)N(Cc3cccc(-c4ccc(S(C)(=O)=O)cc4)n3)C[C@@H]2N1C(=O)NCc1ccccc1: 8.48 µM
C=CCN1CC(=O)N2[C@@H](Cc3ccc(O)cc3)C(=O)N(Cc3ccnc(C(N)=O)c3)C[C@@H]2N1C(=O)NCc1ccccc1: 10.8 µM
C=CCN1CC(=O)N2[C@@H](Cc3ccc(O)cc3)C(=O)N(Cc3csc4c(NC(=O)OC)cccc34)C[C@@H]2N1C(=O)NCc1ccccc1: 19.4 µM

Now take the following compound into account.
IC50 for `C=CCN1CC(=O)N2[C@@H](Cc3ccc(O)cc3)C(=O)N(Cc3cccc(C(=O)NOC)c3)C[C@@H]2N1C(=O)NCc1ccccc1` is 2.48 µM

###

# Test system: Wnt signaling
# assay.overview: TopFlash reporter gene bioassay in SW480 cells
# Type: cell-based
# stated.conditions: Homo sapiens, SW480; read-out: RGA, IC50 (μM) TopF
result.type: IC50 (µM)
Give bare numbers, in µM.

// known answers, use as guide
C=CCOc1c(CN2C[C@H]3N(C(=O)CN(CC=C)N3C(=O)NCc3ccccc3)[C@@H](Cc3ccc(O)cc3)C2=O)cccc1OC [compound 90]: 1.03
C=CCN1CC(=O)N2[C@@H](Cc3ccc(OP(=O)(O)O)cc3)C(=O)N(Cc3csc4cc(N)ccc34)C[C@@H]2N1C(=O)NCc1ccccc1 [compound 24]: 0.48
C=CCN1CC(=O)N2[C@@H](Cc3ccc(OP(=O)(O)O)cc3)C(=O)N(Cc3cccc(OCCN4CCOCC4)c3)C[C@@H]2N1C(=O)NCc1ccccc1 [compound 172]: 2.21

Now take the following molecule into account.
IC50 for C=CCN1CC(=O)N2C(Cc3ccc(OP(=O)(O)O)cc3)C(=O)N(Cc3cccc4sc(N)nc34)C[C@@H]2N1C(=O)NCc1ccccc1 (stereo partly shown) [compound 14] is 0.37

###

# Test system: Wnt signaling
# assay.overview: TopFlash reporter gene bioassay in SW480 cells
# Type: cell-based
# stated.conditions: Homo sapiens, SW480, TopFlash reporter gene assay, inhibition of Wnt signaling; read-out: RGA, IC50 (μM) TopF
What log10 IC50 was measured for each of the following?
Record value = log10 of IC50 given in µM.

// known answers, use as guide
C=CCN1CC(=O)N2[C@@H](Cc3ccc(O)cc3)C(=O)N(Cc3cccc(-c4ccc(N5CCOCC5)nc4)c3)C[C@@H]2N1C(=O)NCc1ccccc1: -0.09
C=CCN1CC(=O)N2[C@@H](Cc3ccc(O)cc3)C(=O)N(Cc3csc4ccc([N+](=O)[O-])cc34)C[C@@H]2N1C(=O)NCc1ccccc1: -0.25
C=CCN1CC(=O)N2[C@@H](Cc3ccc(O)cc3)C(=O)N(Cc3cccc(-c4ccc(OC)nc4)c3)C[C@@H]2N1C(=O)NCc1ccccc1: 0.18
C=CCN1CC(=O)N2[C@@H](Cc3ccc(O)cc3)C(=O)N(Cc3cccc(C(=O)NCCC4=CCCCC4)c3)C[C@@H]2N1C(=O)NCc1ccccc1: 0.22
C=CCN1CC(=O)N2[C@@H](Cc3ccc(O)cc3)C(=O)N(Cc3cc(C(C)(C)C)cc(C(C)(C)C)c3)C[C@@H]2N1C(=O)NCc1ccccc1: 1.20

Now take the following compound into account.
log10 IC50 for `C=CCN1CC(=O)N2[C@@H](Cc3ccc(O)cc3)C(=O)N(Cc3cccc(C(=O)NCCCOCCCC)c3)C[C@@H]2N1C(=O)NCc1ccccc1` is 0.25

###

# Test system: Wnt signaling
# assay.overview: TopFlash reporter gene bioassay in SW480 cells
# Assay type: cell-based
# stated.conditions: Homo sapiens, SW480, TopFlash reporter gene assay, inhibition of Wnt signaling; read-out: RGA, IC50 (μM) TopF
What IC50 was measured for each of the following?

// known answers, use as guide
C=CCN1CC(=O)N2[C@@H](Cc3ccc(O)cc3)C(=O)N(Cc3cccc(C#N)c3F)C[C@@H]2N1C(=O)NCc1ccccc1: 1.13 µM
C=CCN1CC(=O)N2[C@@H](Cc3ccc(O)cc3)C(=O)N(Cc3cccc(-c4cccc(C#N)c4)c3)C[C@@H]2N1C(=O)NCc1ccccc1: 1.58 µM
C=CCN1CC(=O)N2[C@@H](Cc3ccc(O)cc3)C(=O)N(Cc3cccc(C(=O)NCCO)c3)C[C@@H]2N1C(=O)NCc1ccccc1: 7.2 µM
C=CCN1CC(=O)N2[C@@H](Cc3ccc(O)cc3)C(=O)N(Cc3cccc4c3ccn4S(=O)(=O)c3ccc(C)cc3)C[C@@H]2N1C(=O)NCc1ccccc1: 0.69 µM
C=CCN1CC(=O)N2[C@@H](Cc3ccc(O)cc3)C(=O)N(Cc3cccc(Br)c3)C[C@@H]2N1C(=O)NCc1ccccc1: 0.73 µM

IC50 for `C=CCN1CC(=O)N2[C@@H](Cc3ccc(NC=O)cc3)C(=O)N(Cc3cccc4scnc34)C[C@@H]2N1C(=O)NCc1ccccc1` is 0.72 µM
